Record form. Attribute: pEC50. Fill in for each entry.
- Tested on: ML-2
- Test Name: cells
- Design: species or system AML cell lines (8); Secondary HTS, 10-point dose-response in triplicate, Cell Titer Glo viability, four-parameter fit EC50
- Experimental Parameters: Homo sapiens, ML-2, 72 h, read-out: ML-2
pEC50: −log10 of the molar value.

Please fill in: pEC50 reported for Cc1ccc(NCCCc2ccccc2)c(N)c1 = < 5.00

Please fill in: pEC50 reported for Nc1nccc2c1ncn2[C@@H]1C=C(CO)[C@@H](O)[C@H]1O = < 5.00

Please fill in: pEC50 reported for OC[C@H]1O[C@@H](n2cnc3c2NC=NC[C@H]3O)C[C@@H]1O = < 5.00

Please fill in: pEC50 reported for COC(=O)/C=C/C(=O)OC = < 5.00

Please fill in: pEC50 reported for Cn1cc(CNCC2CCN(c3ncc(C(=O)NO)cn3)CC2)c2ccccc21 = 8.41

Please fill in: pEC50 reported for COc1cc(Nc2ncc(F)c(Nc3ccc4c(n3)NC(=O)C(C)(C)O4)n2)cc(OC)c1OC = < 5.00

Please fill in: pEC50 reported for CC(C)c1nc(N(C)S(C)(=O)=O)nc(-c2ccc(F)cc2)c1/C=C/[C@@H](O)C[C@@H](O)CC(=O)O = < 5.00

Please fill in: pEC50 reported for Oc1cccc(-c2nc(N3CCOCC3)c3oc4ncccc4c3n2)c1 = < 5.00

Please fill in: pEC50 reported for Nc1nc(Cl)nc2c1ncn2[C@@H]1O[C@H](CO)[C@@H](O)[C@@H]1F = 6.90

Please fill in: pEC50 reported for Nc1ncnc2c1ncn2[C@@H]1O[C@H](C[C@@H](N)CC[C@H](N)C(=O)O)[C@@H](O)[C@H]1O = < 5.00

Please fill in: pEC50 reported for COc1cccc(-c2cc(=O)c3ccccc3o2)c1N = < 5.00

Please fill in: pEC50 reported for CS(=O)(=O)c1ccc(-c2cnc(N)c(C(=O)Nc3ccccc3)n2)cc1 = < 5.00

Please fill in: pEC50 reported for Cc1ccc(S(=O)(=O)/C=C/C#N)cc1 = 6.17

Please fill in: pEC50 reported for Cc1noc(-c2ccc(-c3ccc(CC(=O)O)cc3)cc2)c1NC(=O)O[C@H](C)c1ccccc1 = < 5.00

Please fill in: pEC50 reported for c1ccc(-c2nn3c(c2-c2ccnc4cc(OCCN5CCOCC5)ccc24)CCC3)nc1 = < 5.00

Please fill in: pEC50 reported for Cc1cc(Nc2nc(N[C@@H](C)c3ncc(F)cn3)ncc2Cl)n[nH]1 = < 5.00

Please fill in: pEC50 reported for COc1cc(C(=O)NC2CCN(C)CC2)c(F)cc1Nc1ncc2c(n1)N(C1CCCC1)CC(F)(F)C(=O)N2C = < 5.00
